Test: Plasma kinetics of TMC278 in beagle dogs after single intramuscular administration
Assay type: in vivo
Details: male, beagle, dog, plasma, intramuscular, 2.5 mg/kg, dog No. 16854; 4 h after dose; single IM 2.5 mg/kg, aqueous 30% DMA/50% PEG400 solution
Procedure: The present study was performed in order to study the plasma kinetics and the absolute bioavailability of TMC278 in beagle dogs after single intramuscular administration (IM) of an aqueous 30% dimethylacetamide (DMA)/50% polyethylene glycol 400 (PEG400) solution of TMC278 at 2.5 mg/kg. […] The concentration of TMC278 in dog plasma was determined by a qualified research LC-MS/MS method after solid phase extraction (SPE). Plasma concentrations of TMC278 were determined after proper sample clean up. […]

compound.structure.string | concentration at 4 h
Cc1cc(C=CC#N)cc(C)c1Nc1ccnc(Nc2ccc(C#N)cc2)n1 | 0.0272 µg/mL

====

assay: Plasma kinetics of TMC278 in beagle dogs after single intramuscular administration; type: in vivo; details: male, beagle, dog, plasma, intramuscular, 2.5 mg/kg, dog No. 16924; day 148; single IM 2.5 mg/kg, aqueous 30% DMA/50% PEG400 solution; read-out: plasma concentration during the wash-out period

compound.structure.string | u | concentration at 148 day
Cc1cc(C=CC#N)cc(C)c1Nc1ccnc(Nc2ccc(C#N)cc2)n1 | ng/mL | 1.24

====

test: Plasma kinetics of TMC278 in beagle dogs after single intramuscular administration; format: in vivo; details: male, beagle, dog, plasma, intramuscular, 2.5 mg/kg, dog No. 16854; day 134; single IM 2.5 mg/kg, aqueous 30% DMA/50% PEG400 solution; read-out: plasma concentration during the wash-out period

molecule | concentration at 134 day [ng/mL]
Cc1cc(C=CC#N)cc(C)c1Nc1ccnc(Nc2ccc(C#N)cc2)n1 [TMC278] | 1.67

====

assay: Plasma kinetics of TMC278 in beagle dogs after single intramuscular administration; format: in vivo; conditions: male, beagle, dog, plasma, intramuscular, 2.5 mg/kg, mean (n=2); 1 h after dose; single IM 2.5 mg/kg, aqueous 30% DMA/50% PEG400 solution

compound.structure.string | concentration at 1 h (ng/mL)
Cc1cc(C=CC#N)cc(C)c1Nc1ccnc(Nc2ccc(C#N)cc2)n1 | 20.4

====

experiment: Plasma kinetics of TMC278 in beagle dogs after single intramuscular administration; type: in vivo; settings: male, beagle, dog, plasma, intramuscular, 2.5 mg/kg, dog No. 16924; 240 h after dose; single IM 2.5 mg/kg, aqueous 30% DMA/50% PEG400 solution

compound.structure.string | u | concentration at 240 h
Cc1cc(C=CC#N)cc(C)c1Nc1ccnc(Nc2ccc(C#N)cc2)n1 | ng/mL | 4.38

====

assay: Plasma kinetics of TMC278 in beagle dogs after single intramuscular administration; type: in vivo; settings: male, beagle, dog, plasma, intramuscular, 2.5 mg/kg, dog No. 16924; 192 h after dose; single IM 2.5 mg/kg, aqueous 30% DMA/50% PEG400 solution

compound.structure.string | concentration at 192 h [ng/mL]
Cc1cc(C=CC#N)cc(C)c1Nc1ccnc(Nc2ccc(C#N)cc2)n1 | 3.57

====

experiment: Plasma kinetics of TMC278 in beagle dogs after single intramuscular administration; type: in vivo; conditions: male, beagle, dog, plasma, intramuscular, 2.5 mg/kg, dog No. 16924; 72 h after dose; single IM 2.5 mg/kg, aqueous 30% DMA/50% PEG400 solution
parameter.measured: concentration at 72 h (ng/mL)

compound.structure.string | parameter.measured | quantitative.result
Cc1cc(C=CC#N)cc(C)c1Nc1ccnc(Nc2ccc(C#N)cc2)n1 | concentration at 72 h | 3.9

====

test: Plasma kinetics of TMC278 in beagle dogs after single intramuscular administration; format: in vivo; conditions: male, beagle, dog, plasma, intramuscular, 2.5 mg/kg, mean (n=2); day 50; single IM 2.5 mg/kg, aqueous 30% DMA/50% PEG400 solution; read-out: plasma concentration during the wash-out period
parameter.measured: concentration at 50 day

compound.structure.string | result
Cc1cc(C=CC#N)cc(C)c1Nc1ccnc(Nc2ccc(C#N)cc2)n1 | 3.11 ng/mL

====

Test: Plasma kinetics of TMC278 in beagle dogs after single intramuscular administration
Assay type: in vivo
Settings: male, beagle, dog, plasma, intramuscular, 2.5 mg/kg, dog No. 16854; 48 h after dose; single IM 2.5 mg/kg, aqueous 30% DMA/50% PEG400 solution
Method: The present study was performed in order to study the plasma kinetics and the absolute bioavailability of TMC278 in beagle dogs after single intramuscular administration (IM) of an aqueous 30% dimethylacetamide (DMA)/50% polyethylene glycol 400 (PEG400) solution of TMC278 at 2.5 mg/kg. […] The concentration of TMC278 in dog plasma was determined by a qualified research LC-MS/MS method after solid phase extraction (SPE). Plasma concentrations of TMC278 were determined after proper sample clean up. […]
parameter.measured: concentration at 48 h

compound.structure.string | parameter.measured | result
Cc1cc(C=CC#N)cc(C)c1Nc1ccnc(Nc2ccc(C#N)cc2)n1 | concentration at 48 h | 9.03 ng/mL

====

assay: Plasma kinetics of TMC278 in beagle dogs after single intramuscular administration; type: in vivo; details: male, beagle, dog, plasma, intramuscular, 2.5 mg/kg, dog No. 16924; 144 h after dose; single IM 2.5 mg/kg, aqueous 30% DMA/50% PEG400 solution

compound.structure.string | concentration at 144 h
Cc1cc(C=CC#N)cc(C)c1Nc1ccnc(Nc2ccc(C#N)cc2)n1 | 3.65 ng/mL

====

assay: Tissue concentrations of TMC278 in beagle dog (biopsy on day 232) after single intramuscular administration; format: in vivo, beagle dogs; conditions: male, beagle, intramuscular; muscle from the non-injected hind leg; dog No. 16924; day 232 after single IM 2.5 mg/kg, aqueous 30% DMA/50% PEG400 solution
parameter.measured: concentration at 232 day

compound.structure.string | result
Cc1cc(C=CC#N)cc(C)c1Nc1ccnc(Nc2ccc(C#N)cc2)n1 | < 10 ng/g

====

assay: Plasma kinetics of TMC278 in beagle dogs after single intramuscular administration; assay type: in vivo; settings: male, beagle, dog, plasma, im, 2.5 mg/kg, dog No. 16924; single IM 2.5 mg/kg, aqueous 30% DMA/50% PEG400 solution; read-out: AUC0-312 h

compound.structure.string | AUC(0-t), ng·h/mL
Cc1cc(C=CC#N)cc(C)c1Nc1ccnc(Nc2ccc(C#N)cc2)n1 | 1600

====

experiment: Plasma kinetics of TMC278 in beagle dogs after single intramuscular administration; format: in vivo; conditions: male, beagle, dog, plasma, im, 2.5 mg/kg, dog No. 16924; half-life between 1 h and 24 h; single IM 2.5 mg/kg, aqueous 30% DMA/50% PEG400 solution; read-out: t1/2, 1-24 h (converted)
parameter.measured: half-life (h)

compound.structure.string | quantitative.result
Cc1cc(C=CC#N)cc(C)c1Nc1ccnc(Nc2ccc(C#N)cc2)n1 | 15.1

====

Assay: Plasma kinetics of TMC278 in beagle dogs after single intramuscular administration
Assay type: in vivo
Details: male, beagle, dog, plasma, intramuscular, 2.5 mg/kg, dog No. 16924; day 78; single IM 2.5 mg/kg, aqueous 30% DMA/50% PEG400 solution; read-out: plasma concentration during the wash-out period
Procedure: The present study was performed in order to study the plasma kinetics and the absolute bioavailability of TMC278 in beagle dogs after single intramuscular administration (IM) of an aqueous 30% dimethylacetamide (DMA)/50% polyethylene glycol 400 (PEG400) solution of TMC278 at 2.5 mg/kg. […] The concentration of TMC278 in dog plasma was determined by a qualified research LC-MS/MS method after solid phase extraction (SPE). Plasma concentrations of TMC278 were determined after proper sample clean up. […]

compound.structure.string | concentration at 78 day, ng/mL
Cc1cc(C=CC#N)cc(C)c1Nc1ccnc(Nc2ccc(C#N)cc2)n1 | 1.69

====

Experiment: Plasma kinetics of TMC278 in beagle dogs after single intramuscular administration
Type: in vivo
Conditions: male, beagle, dog, plasma, intramuscular, 2.5 mg/kg, mean (n=2); 312 h after dose; single IM 2.5 mg/kg, aqueous 30% DMA/50% PEG400 solution
Description: The present study was performed in order to study the plasma kinetics and the absolute bioavailability of TMC278 in beagle dogs after single intramuscular administration (IM) of an aqueous 30% dimethylacetamide (DMA)/50% polyethylene glycol 400 (PEG400) solution of TMC278 at 2.5 mg/kg. […] The concentration of TMC278 in dog plasma was determined by a qualified research LC-MS/MS method after solid phase extraction (SPE). Plasma concentrations of TMC278 were determined after proper sample clean up. […]

compound | concentration at 312 h (ng/mL)
Cc1cc(C=CC#N)cc(C)c1Nc1ccnc(Nc2ccc(C#N)cc2)n1 [TMC278] | 5.11

This collection of values is drawn from patent US10765674B2.
